- System: P. falciparum Dd2
- assay-summary: In-vitro inhibition potency against Plasmodium falciparum, 72 hours, nucleic acid dye
- Assay type: cell-based
- experimental-setup: DD2, read-out: IC50 P. falciparum Dd2 Mean ± S.D.
measured-metric: pIC50
Units for pIC50: none; it is -log10 of a concentration expressed in mol/L.

Prompt: Fill blank: measured pIC50 of the molecule CCN(CC)CCCC(C)Nc1ccnc2cc(Cl)ccc12 (stereo not shown) is ____.
Completion: 6.73
